The reported measurements were obtained from paper PMC3577359.

Hi! I'm sharing some pKi results obtained with AusA (A1–T1–C–A2–T2–R) (Staphylococcus aureus).
pKi: −log10 of the molar value.
experimental readout: pKi

compound: CC(C)[C@H](N)C(=O)NS(=O)(=O)OC[C@H]1O[C@@H](n2cnc3c(N)ncnc32)[C@H](O)[C@@H]1O [Val-AMS, 5′-O-[N-(valinyl)sulfamoyl]adenosine]
study system: AusA (A1–T1–C–A2–T2–R) (Staphylococcus aureus)
reading: 7.36
--
compound: Nc1ncnc2c1ncn2[C@@H]1O[C@H](COS(=O)(=O)NC(=O)[C@@H](N)Cc2ccccc2)[C@@H](O)[C@H]1O [Phe-AMS]
study system: AusA (A1–T1–C–A2–T2–R) (Staphylococcus aureus)
reading: 9.10
